- System: CLK2
- applied_conditions: concentration: 1 μM, replicates: in singlicate; n = 1;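 also: KINOMEscan kinase panel screen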

compound | %Inh
Nc1ncnc2c1ncn2-c1ccc(Cl)cc1 | 19%
COc1ccc(-n2cnc3c(N)ncnc32)cc1 | 48%
O=C(Nc1ccc2c(c1)OCO2)NC1CCN(c2ccnc(NCc3ccc(F)cc3)n2)CC1 | 0%
COc1ccc(-c2cc3c(C)nc(N)nc3n([C@H]3CC[C@H](OCCO)CC3)c2=O)cn1 | 0%
CCS(=O)(=O)c1ccc(OC)c(Nc2ncc(-c3ccc(F)cc3)o2)c1.Cl | 40%
CN1C(=O)C(Nc2cc(Cl)c(O)c(Cl)c2)=C(c2ccc(Cl)cc2)C1=O | 0%
CCn1c(-c2nonc2N)nc2ccccc21 | 0%
Nc1nc(N)c2nc(-c3ccccc3)[nH]c2n1 | 11%
Cc1nn2c(=O)cc(N3CCOCC3)nc2n1Cc1cccc(Cl)c1Cl | 1%
COc1cc(Nc2nccc(N3CCC(NC(=O)C4COc5ccccc5O4)C3)n2)cc(OC)c1OC (stereo not shown) | 0%
FC(F)(F)c1ccc(-c2ncn(CCCN3CCOCC3)c2-c2ccncc2)cc1 | 0%
COC(=O)c1c(-c2ccccc2)c2cc(Br)ccc2c(=O)n1Cc1ccc(NC(=O)CCC(=O)O)cc1 | 0%
Nc1nc(-c2ccccc2F)c(-c2ccnc3ccccc23)s1 | 0%
O=C(Nc1n[nH]c2nc(-c3ccccc3)c(Cl)cc12)C1CC1 | 0%
COc1cc2ncn(-c3cc(OCc4ccncc4Br)c(C(N)=O)s3)c2cc1OC | 38%
COc1cc(OC)cc(-c2cc3cnc(N)nc3nc2NC(=O)NC(C)(C)C)c1 | 0%
Cn1c(=O)c(F)c(Nc2ccc(I)cc2F)c2c(=O)n(OC[C@H](O)CO)cnc21 | 16%
COc1cccc(-n2cnc3c(N)ncnc32)c1 | 3%
COC(=O)c1c(-c2ccccc2)c2cc(C)ccc2c(=O)n1Cc1ccccc1 | 0%

* * *

Entries and their %Inh values follow.
- Test system: MAP3K3
- applied_conditions: concentration: 1 μM, replicates: in singlicate; n = 1
measured_parameter: %Inh (%)

compound | readout_number
COC(=O)c1c(-c2ccccc2)c2cc(Br)ccc2c(=O)n1Cc1ccc(S(C)(=O)=O)cc1 | 32
CCS(=O)(=O)c1ccc(OC)c(Nc2ncc(-c3ccc(F)cc3)o2)c1.Cl | 0
COc1ccc(CNC(=O)NC2CCN(c3ccnc(Nc4ccc(F)cc4)n3)C2)cc1 (centres unmarked) | 0
Cc1nn2c(=O)cc(N3CCOCC3)nc2n1Cc1cccc(Cl)c1Cl | 0
O=c1cc(N2CCOCC2)nc2n(Cc3ccc(F)c(Cl)c3)ccn12 | 0

* * *

- System: STK36
- applied_conditions: concentration: 1 μM, replicates: in singlicate; n = 1
measured_parameter: %Inh (%)

molecule | target_or_system | unit_annotation | readout_number
COc1ccc(-c2cc3c(C)nc(N)nc3n([C@H]3CC[C@H](O)CC3)c2=O)cn1 | STK36 | % | 0
Nc1nccc2scc(-c3ccc4c(c3)CCN4C(=O)Cc3ccccc3)c12 | STK36 | % | 0
COc1cc(Nc2ccnc3ccc(C(F)(F)F)cc23)cc(OC)c1OC | STK36 | % | 0
CCC(=O)c1c(-c2ccccc2)c2cc(Cl)ccc2c(=O)n1Cc1cc(S(C)(=O)=O)n(CC(F)F)n1 | STK36 | % | 0
Nc1nc(-c2ccccc2F)c(-c2ccnc3ccccc23)s1 | STK36 | % | 0
Cc1ccc(-c2ccc3c(ccc4sc5c(c43)NC[C@@H](C)N=C5N(C)C)n2)cn1 | STK36 | % | 0
O=C(Nc1n[nH]c2nc(-c3ccccc3)c(Cl)cc12)C1CC1 | STK36 | % | 6
COc1cccc(C2=C(Nc3cccc(C(=O)O)c3)C(=O)NC2=O)c1 | STK36 | % | 4
Nc1ncnc2c1ncn2-c1ccc(Cl)cc1 | STK36 | % | 0
Nc1ncnc2c1ncn2-c1cccc2ccccc12 | STK36 | % | 6
O=C(Nc1n[nH]c2nc(-c3ccccc3)c(Br)cc12)C1CC1 | STK36 | % | 38
CCS(=O)(=O)c1ccc(OC)c(Nc2ncc(-c3ccc(F)cc3)o2)c1.Cl | STK36 | % | 0
COC(=O)c1c(-c2ccccc2)c2cc(Br)ccc2c(=O)n1Cc1ccc(S(C)(=O)=O)cc1 | STK36 | % | 10
COc1cc2ncn(-c3cc(OCc4ccncc4)c(C(N)=O)s3)c2cc1OC | STK36 | % | 0
COc1ccc(-c2cc3c(C)nc(N)nc3n([C@H]3CC[C@H](OCCO)CC3)c2=O)cn1 | STK36 | % | 0
CCC(=O)c1c(-c2ccccc2)c2cc(Cl)ccc2c(=O)n1Cc1cc(S(C)(=O)=O)n(CC(N)=O)n1 | STK36 | % | 0
Cc1nn2c(=O)cc(N3CCOCC3)nc2n1Cc1cccc(Cl)c1Cl | STK36 | % | 0
Cc1c(Cn2c(C)nn3c(=O)cc(N4CCO[C@H](C)C4)nc23)cccc1C(F)(F)F | STK36 | % | 0
CN1C(=O)C(Nc2ccccc2)=C(c2ccccc2)C1=O | STK36 | % | 0
COC(=O)c1c(-c2ccccc2)c2cc(C)ccc2c(=O)n1Cc1ccccc1 | STK36 | % | 1
CCS(=O)c1ccc(-c2coc3ccc(-c4nnc(C)o4)cc23)cc1 (stereo not drawn) | STK36 | % | 2
COc1ccc(Nc2nccc(N3CCC(NS(=O)(=O)c4ccc(NC(C)=O)cc4)C3)n2)cc1 (stereo not drawn) | STK36 | % | 3
Cl.c1ccc(Cn2cnc3cc(Nc4ncnc5ccccc45)ccc32)cc1 | STK36 | % | 0
CCc1ccc(-c2ccc3c(c2)-c2nn(C)cc2S(=O)(=O)N3C)cc1 | STK36 | % | 0
Nc1ncnc2c1ncn2-c1cccc(F)c1 | STK36 | % | 4
CCn1c(-c2nonc2N)nc2ccccc21 | STK36 | % | 0
CCn1c(-c2ccoc2)nc2cnccc21 | STK36 | % | 0
Cc1cccc(-c2cc(-c3c[nH]nc3-c3ccccn3)ccn2)c1 | STK36 | % | 64
O=C(Nc1n[nH]c2cc(-c3ccccc3F)ccc12)C1CC1 | STK36 | % | 0
CCc1nc(-c2cccc(C)c2)c(-c2ccncc2)s1 | STK36 | % | 15

* * *

- System: CSNK2A2
- applied_conditions: concentration: 1 μM, replicates: in singlicate; n = 1

given_smiles | %Inh
CCC(=O)c1c(-c2ccccc2)c2cc(Cl)ccc2c(=O)n1Cc1cc(S(C)(=O)=O)n(CC(N)=O)n1 | 4%
Cc1cc(Nc2nc(-c3cccc(C)n3)nc3ccccc23)ccn1 | 5%
Cc1nc(N(C)[C@H]2CN(C(=O)CC#N)CC[C@H]2C)c2cc[nH]c2n1 | 6%
Cc1nn2c(=O)cc(N3CCOCC3)nc2n1Cc1cccc(Cl)c1Cl | 5%
COc1ccc(-c2coc3ccc(-c4nnc(SCc5cccc(C#N)c5)o4)cc23)cc1 | 28%

* * *

- Tested on: MKNK1
- applied_conditions: concentration: 1 μM, replicates: in singlicate; n = 1

compound | target_or_system | %Inh [%]
O=C(NCCNc1ccnc(Nc2ccc(F)cc2)n1)Nc1ccc2c(c1)OCO2 | MKNK1 | 23
COc1cccc(C2=C(Nc3cccc(C(=O)O)c3)C(=O)NC2=O)c1 | MKNK1 | 2
CCC(=O)c1c(-c2ccccc2)c2cc(Cl)ccc2c(=O)n1Cc1cc(S(C)(=O)=O)n(CCC(C)(C)O)n1 | MKNK1 | 0
OCCCNc1nccc(-c2c(-c3cccc(C(F)(F)F)c3)nn3cc(C(F)(F)F)ccc23)n1 | MKNK1 | 0
O=C(Nc1n[nH]c2nc(-c3ccccc3)c(Br)cc12)C1CC1 | MKNK1 | 7
COC(=O)c1c(-c2ccccc2)c2cc(Br)ccc2c(=O)n1Cc1ccc(NC(=O)CCC(=O)O)cc1 | MKNK1 | 0
Cc1ccc(Oc2ccc(Nc3ncnc4cc[nH]c34)cc2C)cn1 | MKNK1 | 34
CCS(=O)(=O)c1ccc(OC)c(Nc2ncc(-c3ccc(F)cc3)o2)c1.Cl | MKNK1 | 0
COc1cc2ncn(-c3cc(OCc4ccncc4)c(C(N)=O)s3)c2cc1OC | MKNK1 | 5
COc1cc2ncn(-c3cc(OCc4ccncc4Br)c(C(N)=O)s3)c2cc1OC | MKNK1 | 15
CCC(=O)c1c(-c2ccccc2)c2cc(Cl)ccc2c(=O)n1Cc1cc(S(C)(=O)=O)n(CC(N)=O)n1 | MKNK1 | 0
CCc1ccc(-c2ccc3c(c2)-c2nn(C)cc2S(=O)(=O)N3C)cc1 | MKNK1 | 37
Cc1ccc(-c2ccc3c(ccc4sc5c(c43)NC[C@@H](C)N=C5N(C)C)n2)cn1 | MKNK1 | 0
Nc1n[nH]c2ncc(-c3ccccc3)cc12 | MKNK1 | 53
Cc1nnc(-c2ccc3ncn(-c4ccc(S(C)=O)cc4)c3c2)o1 (stereo not drawn) | MKNK1 | 0
Nc1ncnc2c1ncn2-c1cccc2ccccc12 | MKNK1 | 0
COc1ccc(CNC(=O)NC2CCN(c3ccnc(Nc4ccc(F)cc4)n3)C2)cc1 (stereo not drawn) | MKNK1 | 0
COc1cc2ncn(-c3cc(OCCCc4ccccc4)c(C(N)=O)s3)c2cc1OC | MKNK1 | 3
